# System: Bifidobacterium longum subsp. longum
# measurement_notes: growth AUC relative to DMSO control (median of replicates) (fraction); higher = more growth (less inhibition), active = hit call of the paper
# condition_summary: 20 µM; 24 h
growth AUC for assorted compounds
endpoint_label: growth AUC

1) Cc1cccc2sc3nncn3c12 : 0.964
2) O.[Br-].[Br-].c1cc[n+]2c(c1)-c1cccc[n+]1CC2 : 1.02
3) CCCN(CCCl)c1c([N+](=O)[O-])cc(C(F)(F)F)cc1[N+](=O)[O-] : 1.07
4) CCOP(=O)(Sc1ccccc1)Sc1ccccc1 : 1.02
5) CO/C=C(/C(=O)OC)c1ccccc1Oc1cc(Oc2ccccc2C#N)ncn1 : 0.977
6) CC[C@H](C)[C@H]1O[C@]2(C=C[C@@H]1C)C[C@@H]1C[C@@H](C/C=C(\C)[C@@H](O[C@H]3C[C@H](OC)[C@@H](O[C@H]4C[C@H](OC)[C@@H](NC)[C@H](C)O4)[C@H](C)O3)[C@@H](C)/C=C/C=C3\CO[C@@H]4[C@H](O)C(C)=C[C@@H](C(=O)O1)[C@]34O)O2.O=C(O)c1ccccc1 : 0.167
7) CNC(=O)/C(=N/OC)c1ccccc1Oc1ccccc1 : 0.942
8) CCN(C(=O)n1nnn(-c2ccccc2Cl)c1=O)C1CCCCC1 : 0.988
9) O=C(NC(=O)c1c(F)cccc1F)Nc1ccc(CO/N=C(\c2ccc(Cl)cc2)C2CC2)cc1 : 0.959
10) CC(CCl)OP(=O)(OC(C)CCl)OC(C)CCl (mixture of isomers) : 1.05
11) C#CCN1CC(=O)N(COC(=O)C2C(C=C(C)C)C2(C)C)C1=O (mixture of isomers) : 0.949
12) COc1nn(CSP(=S)(OC)OC)c(=O)s1 : 1.02
13) CCN(CC)C(=S)[S-].O.O.O.[Na+] : 0.961
14) COC(=O)Nc1nc2ccccc2[nH]1 : 1.01
15) CCOP(=S)(OCC)Oc1cc(C)nc(C(C)C)n1 : 0.972
16) COP(=S)(OC)Oc1ccc([N+](=O)[O-])c(Cl)c1 : 1.01
17) CCOP(=S)(OCC)Oc1ccc2c(C)c(Cl)c(=O)oc2c1 : 0.968
18) CCSC(=O)N1CCCCCC1 : 0.992
19) CC(C)C(C(=O)OC(C#N)c1cccc(Oc2ccccc2)c1)c1ccc(OC(F)F)cc1 (stereo unspecified) : 0.965
20) N#Cc1sc2c(=O)c3ccccc3c(=O)c=2sc1C#N : 0.84
21) CNC(=O)ON=C(C)C(C)SC (stereo unspecified) : 1.03
22) N#Cc1c(Cl)c(Cl)c(Cl)c(C#N)c1Cl : 0.782
23) N#Cc1nn(-c2c(Cl)cc(C(F)(F)F)cc2Cl)c(N)c1S(=O)C(F)(F)F (stereo unspecified) : 0.951
24) CCCSP(=S)(OCC)Oc1ccc(Cl)cc1Cl (stereo unspecified) : 1.07
25) CP(=O)(O)CCC(N)C(=O)[O-].[NH4+] (stereo unspecified) : 1.02
26) c1ccc2c(c1)-c1cccc3cccc-2c13 : 0.857
27) CCNc1nc(Cl)nc(NC(C)(C)C)n1 : 1.01
28) CNC(=O)N(C)c1nnc(C(C)(C)C)s1 : 0.925
29) OC(Cn1cncn1)(c1ccc(F)cc1)c1ccccc1F (stereo unspecified) : 1.21
30) O=S(=O)(c1ccccc1)c1ccccc1 : 1.01
31) CCNc1nc(Cl)nc(NCC)n1 : 1.05

* * *

# System: Parabacteroides merdae
# measurement_notes: growth AUC relative to DMSO control (median of replicates) (fraction); higher = more growth (less inhibition), active = hit call of the paper
# condition_summary: 20 µM; 24 h
growth AUC for assorted molecules
endpoint_label: growth AUC

1) C[C@@H](Oc1ccc(Cl)cc1Cl)C(=O)O : 1.01 (inactive)
2) CC(Cl)(Cl)C(=O)O : 0.961 (inactive)
3) CCOC(=O)N(C)C(=O)CSP(=S)(OCC)OCC : 0.985 (inactive)
4) N#CN=C1SCCN1Cc1ccc(Cl)nc1 : 1.01 (inactive)
5) CC1(C)CON(Cc2ccccc2Cl)C1=O : 0.985 (inactive)
6) CCN(CC)C(=O)/C(Cl)=C(/C)OP(=O)(OC)OC : 0.978 (inactive)
7) Cc1c(N)cccc1N : 1.01 (inactive)
8) Clc1cc(Cl)c(Cl)cc1Cl : 0.998 (inactive)
9) CCS(=O)Cc1ccccc1OC(=O)NC (centres undefined) : 0.997 (inactive)
10) O=C1C=CC(=O)C=C1 : 1.01 (inactive)
11) COP(=O)(OC)SCn1c(=O)oc2cc(Cl)cnc21 : 1 (inactive)
12) CC(C)(O)C(Cl)(Cl)Cl.CC(C)(O)C(Cl)(Cl)Cl.O : 0.987 (inactive)
13) CC(C)(C)c1ccc(CCOc2ncnc3ccccc23)cc1 : 0.934 (inactive)
14) CCN(CC)N=O : 1.01 (inactive)

* * *

# System: Eubacterium rectale
# measurement_notes: growth AUC relative to DMSO control (median of replicates) (fraction); higher = more growth (less inhibition), active = hit call of the paper
# condition_summary: 20 µM; 24 h
The threshold is inclusive: growth AUC of exactly 1 counts as True; values below receive False.

1. COc1nn(CSP(=S)(OC)OC)c(=O)s1 : True
2. CCOC(=O)c1cn2nc(OP(=S)(OCC)OCC)cc2nc1C : True
3. OC(c1ccc(F)cc1)(c1cncnc1)c1ccccc1Cl (stereo not given) : False

* * *

# Tested on: Collinsella aerofaciens
# measurement_notes: growth AUC relative to DMSO control (median of replicates) (fraction); higher = more growth (less inhibition), active = hit call of the paper
# condition_summary: 20 µM; 24 h
The threshold is inclusive: growth AUC of exactly 1 counts as fulfilled; values below receive not fulfilled.

1. CC1(C)C(C=C(Cl)Cl)C1C(=O)OC(C#N)c1ccc(F)c(Oc2ccccc2)c1 (mixture of isomers) : not fulfilled
2. N#Cc1sc2c(=O)c3ccccc3c(=O)c=2sc1C#N : fulfilled
3. OCC1C(CO)C2(Cl)C(Cl)=C(Cl)C1(Cl)C2(Cl)Cl (stereo unspecified) : not fulfilled
4. CCOP(=S)(OCC)Oc1ccc(Cl)cc1Cl : fulfilled
5. O=c1ccc(=O)[nH][nH]1 : not fulfilled

* * *

# Test system: Clostridium difficile
# measurement_notes: growth AUC relative to DMSO control (median of replicates) (fraction); higher = more growth (less inhibition), active = hit call of the paper
# condition_summary: 20 µM; 24 h
growth AUC for assorted compounds
endpoint_label: growth AUC

1) CNC(=O)O/N=C(\C)C(C)S(C)(=O)=O (stereo unspecified) : 0.98
2) CCc1cnc(C2=NC(C)(C(C)C)C(=O)N2)c(C(=O)O)c1 (stereo unspecified) : 0.993
3) CCOP(=S)(OCC)SCSP(=S)(OCC)OCC : 0.995
4) CNC(=O)N(C)c1nc2ccccc2s1 : 0.978
5) Nc1ccc(Cc2ccc(N)c(Cl)c2)cc1Cl : 1
6) ClC1=C(Cl)C2(Cl)C3C4C=CC(C4)C3C1(Cl)C2(Cl)Cl (stereo unspecified) : 1.02
7) CC1(C)C(C=C(Cl)Cl)[C@@H]1C(=O)O[C@@H](C#N)c1ccc(F)c(Oc2ccccc2)c1 (stereo partly specified) : 0.996
8) CCOP(=S)(OCC)Oc1cc(Cl)c(Br)cc1Cl : 0.977
9) CCOP(=S)(OCC)SCn1nnc2ccccc2c1=O : 1.02
10) CCOP(=S)(OCC)Oc1cc(-c2ccccc2)on1 : 1.02
11) COc1cc(OC)nc(Sc2cccc(Cl)c2C(=O)O)n1 : 1.01

* * *

# Test system: Coprococcus comes
# measurement_notes: growth AUC relative to DMSO control (median of replicates) (fraction); higher = more growth (less inhibition), active = hit call of the paper
# condition_summary: 20 µM; 24 h
endpoint_label: growth AUC

1. ClC1=C(Cl)C2(Cl)C3C(Cl)C=CC3C1(Cl)C2(Cl)Cl (centres undefined) : 0.989
2. O=c1[nH]c(Cl)c(Cl)cc1Cl : 0.998
3. CNC(=O)Oc1ccc(N(C)C)c(C)c1 : 0.992
4. CCCN(CCC)C(=O)SCc1ccccc1 : 1.01
5. CCN(CC)c1nc(C)cc(OP(=S)(OC)OC)n1 : 0.982
6. COC(=O)N(OC)c1ccccc1COc1ccn(-c2ccc(Cl)cc2)n1 : 0.998
7. CS(=O)(=O)c1ccc(C(=O)C2C(=O)CCCC2=O)c(Cl)c1COCC(F)(F)F : 1.01
8. C=CCOC(=O)C(C)(C)OC(=O)c1cc(-n2c(=O)cc(C(F)(F)F)n(C)c2=O)ccc1Cl : 1
9. Clc1ccc(C(c2ccc(Cl)cc2)C(Cl)Cl)cc1 : 1.01
10. C#CCOS(=O)OC1CCCCC1Oc1ccc(C(C)(C)C)cc1 (mixture of isomers) : 1.02
11. Oc1ccc(Cl)cc1Cl : 1.01
12. C#CCC1=C(C)C(OC(=O)C2C(C=C(C)C)C2(C)C)CC1=O (centres undefined) : 0.997
13. CCOCN(C(=O)CCl)c1c(C)cccc1CC : 1.01
14. Cc1[nH]c(=O)n(C(C)(C)C)c(=O)c1Cl : 0.999
